- Study target: FGR (human) (UniProt P09769)
- Sequence (P09769 whole entry, looked up): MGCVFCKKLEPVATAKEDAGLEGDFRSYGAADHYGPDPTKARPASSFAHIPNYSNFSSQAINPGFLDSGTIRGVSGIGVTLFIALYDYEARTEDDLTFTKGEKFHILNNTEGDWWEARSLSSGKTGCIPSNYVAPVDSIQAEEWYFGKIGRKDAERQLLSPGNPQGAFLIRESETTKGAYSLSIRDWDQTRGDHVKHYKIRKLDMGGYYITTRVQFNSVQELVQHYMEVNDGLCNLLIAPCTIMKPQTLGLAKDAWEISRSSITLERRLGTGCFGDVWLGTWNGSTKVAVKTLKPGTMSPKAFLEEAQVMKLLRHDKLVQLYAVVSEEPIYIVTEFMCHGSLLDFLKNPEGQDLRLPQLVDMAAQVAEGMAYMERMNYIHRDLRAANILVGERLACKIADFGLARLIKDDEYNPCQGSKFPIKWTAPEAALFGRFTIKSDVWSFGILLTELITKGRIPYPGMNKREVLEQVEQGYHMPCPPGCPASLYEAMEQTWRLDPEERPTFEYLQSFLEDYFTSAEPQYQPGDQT
- Protocol summary: Caliper, Mobility shift assay off-chip
- Test parameters: compound 0.02 µM
Quantity name: inhibition

# Compound smiles, inhibition
rows = [
    ("COc1cc2c(Oc3ccc4[nH]c(C)cc4c3F)ncnc2cc1OCCCN1CCCC1", "12.6%"),
]

Query: # returns recorded inhibition (system: FGR (human) (UniProt P09769)) for `CNC(=O)c1cc(Oc2ccc(NC(=O)Nc3ccc(Cl)c(C(F)(F)F)c3)cc2)ccn1`
Response: 1.6%

Query: How about this compound: `CNC(=O)c1ccccc1Sc1ccc2c(/C=C/c3ccccn3)n[nH]c2c1`
Response: 25%

Query: How about this compound: `Cc1ccc(Nc2nccc(N(C)c3ccc4c(C)n(C)nc4c3)n2)cc1S(N)(=O)=O`
Response: 18.8%

###

- Study target: BMPR1A (human)
- Protocol summary: ELISA
- Test parameters: compound 0.02 µM
Each record here notes measured inhibition.
Give the number; % is assumed, so skip it.

Query: Tell me the measured inhibition of `CNC(=O)c1ccccc1Sc1ccc2c(/C=C/c3ccccn3)n[nH]c2c1` , please.
Response: 1.1

Query: How about this molecule: `CNC(=O)c1cc(Oc2ccc(NC(=O)Nc3ccc(Cl)c(C(F)(F)F)c3)cc2)ccn1`
Response: 6.9

Query: How about this molecule: `COc1cc2c(Oc3ccc4[nH]c(C)cc4c3F)ncnc2cc1OCCCN1CCCC1`
Response: 8.3

Query: How about this molecule: `Cc1ccc(Nc2nccc(N(C)c3ccc4c(C)n(C)nc4c3)n2)cc1S(N)(=O)=O`
Response: 0.4

###

Each record here notes measured inhibition.
- Study target: TSSK3 (human) (UniProt Q96PN8)
- Sequence (Q96PN8 whole entry, looked up): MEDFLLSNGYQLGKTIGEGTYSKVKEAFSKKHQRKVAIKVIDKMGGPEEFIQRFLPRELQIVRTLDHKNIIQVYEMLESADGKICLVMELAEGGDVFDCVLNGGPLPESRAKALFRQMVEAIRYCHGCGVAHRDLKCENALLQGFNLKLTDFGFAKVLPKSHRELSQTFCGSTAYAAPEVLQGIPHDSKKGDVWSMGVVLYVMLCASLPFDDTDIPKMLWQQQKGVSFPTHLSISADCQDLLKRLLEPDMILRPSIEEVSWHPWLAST
- Protocol summary: Caliper, Mobility shift assay off-chip
- Test parameters: compound 0.02 µM
Give the number; % is assumed, so skip it.

Examples with answers:
# Compound smiles, Measurement unit, Numeric readout
measured = [
    ("COc1cc2c(Oc3ccc4[nH]c(C)cc4c3F)ncnc2cc1OCCCN1CCCC1", "%", 0.6),
    ("Cc1ccc(Nc2nccc(N(C)c3ccc4c(C)n(C)nc4c3)n2)cc1S(N)(=O)=O", "%", 2.2),
    ("CNC(=O)c1cc(Oc2ccc(NC(=O)Nc3ccc(Cl)c(C(F)(F)F)c3)cc2)ccn1", "%", 2.7),
]

// switching to the query compound
Query: # returns recorded inhibition (system: TSSK3 (human) (UniProt Q96PN8)) for `CNC(=O)c1ccccc1Sc1ccc2c(/C=C/c3ccccn3)n[nH]c2c1`
Response: 0

###

Each record here notes measured inhibition.
- Study target: PAK2 (human) (UniProt Q13177)
- Sequence (Q13177 whole entry, looked up): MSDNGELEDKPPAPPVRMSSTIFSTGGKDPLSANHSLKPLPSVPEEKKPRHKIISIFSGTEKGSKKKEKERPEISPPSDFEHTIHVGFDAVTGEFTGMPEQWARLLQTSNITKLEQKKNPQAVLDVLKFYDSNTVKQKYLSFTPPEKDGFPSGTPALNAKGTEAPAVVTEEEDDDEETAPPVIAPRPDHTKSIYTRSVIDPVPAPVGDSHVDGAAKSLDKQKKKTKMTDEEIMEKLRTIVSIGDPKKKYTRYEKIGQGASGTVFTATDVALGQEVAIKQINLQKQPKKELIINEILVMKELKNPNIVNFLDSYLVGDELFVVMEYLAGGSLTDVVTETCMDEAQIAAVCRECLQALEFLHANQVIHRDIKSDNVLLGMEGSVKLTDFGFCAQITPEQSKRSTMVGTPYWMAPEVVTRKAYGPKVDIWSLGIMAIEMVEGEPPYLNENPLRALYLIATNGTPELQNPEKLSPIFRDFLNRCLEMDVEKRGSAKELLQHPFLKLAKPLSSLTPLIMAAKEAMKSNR
- Protocol summary: Caliper, Mobility shift assay off-chip
- Test parameters: compound 0.2 µM
Respond with the figure and its unit, in that order.

Examples with answers:
# Compound smiles, inhibition
records = [
    ("CCN(CC)CCNC(=O)c1c(C)[nH]c(/C=C2\\C(=O)Nc3ccc(F)cc32)c1C", "1.8%"),
    ("CNC(=O)c1cc(Oc2ccc(NC(=O)Nc3ccc(Cl)c(C(F)(F)F)c3)cc2)ccn1", "0.7%"),
    ("Cc1ccc(Nc2nccc(N(C)c3ccc4c(C)n(C)nc4c3)n2)cc1S(N)(=O)=O", "2%"),
]

// switching to the query molecule
Query: Tell me the measured inhibition of `COc1cc2c(Oc3ccc4[nH]c(C)cc4c3F)ncnc2cc1OCCCN1CCCC1` , please.
Response: 3.5%

###

Here's a batch of compounds along with measured Ki for ABL2 (human).
Give the number; nM is assumed, so skip it.

# Compound smiles, Quantity name, Numeric readout
data = [
    ("COc1cc2nccc(Oc3ccc(NC(=O)Nc4cc(C)on4)c(Cl)c3)c2cc1OC", "Ki", 52.5),
]

// switching to the query compound
Query: Tell me the measured Ki of `Cc1ccc(F)c(NC(=O)Nc2ccc(-c3cccc4[nH]nc(N)c34)cc2)c1` , please.
Response: 5000

###

Each record here notes measured inhibition.
- Study target: FGFR3 (human) (UniProt P22607)
- Sequence (P22607 whole entry, looked up): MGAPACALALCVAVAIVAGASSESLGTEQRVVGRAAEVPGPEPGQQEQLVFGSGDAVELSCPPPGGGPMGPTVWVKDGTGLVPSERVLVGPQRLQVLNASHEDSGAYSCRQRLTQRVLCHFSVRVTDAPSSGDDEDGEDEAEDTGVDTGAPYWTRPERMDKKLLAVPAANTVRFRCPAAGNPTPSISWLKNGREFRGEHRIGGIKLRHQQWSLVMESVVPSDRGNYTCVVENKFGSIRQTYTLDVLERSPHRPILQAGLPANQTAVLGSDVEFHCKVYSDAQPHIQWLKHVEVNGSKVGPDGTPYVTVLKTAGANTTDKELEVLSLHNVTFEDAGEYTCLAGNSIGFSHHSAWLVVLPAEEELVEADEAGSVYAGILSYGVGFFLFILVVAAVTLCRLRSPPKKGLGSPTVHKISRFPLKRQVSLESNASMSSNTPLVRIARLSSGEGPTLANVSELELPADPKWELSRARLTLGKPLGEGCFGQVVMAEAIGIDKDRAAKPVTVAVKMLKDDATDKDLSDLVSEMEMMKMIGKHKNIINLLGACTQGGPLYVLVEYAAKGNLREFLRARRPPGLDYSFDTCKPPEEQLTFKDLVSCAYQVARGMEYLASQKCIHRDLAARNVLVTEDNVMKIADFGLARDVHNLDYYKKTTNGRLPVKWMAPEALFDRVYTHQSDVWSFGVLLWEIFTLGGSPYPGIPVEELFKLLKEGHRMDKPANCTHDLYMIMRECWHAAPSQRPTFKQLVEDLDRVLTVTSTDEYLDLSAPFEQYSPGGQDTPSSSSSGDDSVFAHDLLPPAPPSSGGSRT
- Protocol summary: Caliper, Mobility shift assay off-chip
- Test parameters: compound 0.02 µM
Give the number; % is assumed, so skip it.

Examples with answers:
# Compound smiles, inhibition [%]
data = [
    ("Cc1ccc(Nc2nccc(N(C)c3ccc4c(C)n(C)nc4c3)n2)cc1S(N)(=O)=O", 21.3),
    ("CNC(=O)c1cc(Oc2ccc(NC(=O)Nc3ccc(Cl)c(C(F)(F)F)c3)cc2)ccn1", 5.5),
    ("COc1cc2c(Oc3ccc4[nH]c(C)cc4c3F)ncnc2cc1OCCCN1CCCC1", 72.3),
]

Query: Tell me the measured inhibition of `CNC(=O)c1ccccc1Sc1ccc2c(/C=C/c3ccccn3)n[nH]c2c1` , please.
Response: 47.4

###

- Study target: WNK1 (human)
- Protocol summary: Caliper, Mobility shift assay off-chip
- Test parameters: compound 0.02 µM
Each record here notes measured inhibition.
Give the number; % is assumed, so skip it.

Examples with answers:
# Compound smiles, inhibition (%)
rows = [
    ("CNC(=O)c1ccccc1Sc1ccc2c(/C=C/c3ccccn3)n[nH]c2c1", 2.1),
    ("CNC(=O)c1cc(Oc2ccc(NC(=O)Nc3ccc(Cl)c(C(F)(F)F)c3)cc2)ccn1", -4.5),
    ("Cc1ccc(Nc2nccc(N(C)c3ccc4c(C)n(C)nc4c3)n2)cc1S(N)(=O)=O", 1.6),
]

// switching to the query compound
Query: Tell me the measured inhibition of `COc1cc2c(Oc3ccc4[nH]c(C)cc4c3F)ncnc2cc1OCCCN1CCCC1` , please.
Response: 4.8

###

- Study target: SLK (human)
- Protocol summary: Caliper, Mobility shift assay off-chip
- Test parameters: compound 0.02 µM
Each record here notes measured inhibition.
Give the number; % is assumed, so skip it.

Examples with answers:
# Compound smiles, Numeric readout
data = [
    ("Cc1ccc(Nc2nccc(N(C)c3ccc4c(C)n(C)nc4c3)n2)cc1S(N)(=O)=O", 9),
    ("CNC(=O)c1cc(Oc2ccc(NC(=O)Nc3ccc(Cl)c(C(F)(F)F)c3)cc2)ccn1", 1),
    ("CNC(=O)c1ccccc1Sc1ccc2c(/C=C/c3ccccn3)n[nH]c2c1", 10.3),
]

// switching to the query compound
Query: Tell me the measured inhibition of `COc1cc2c(Oc3ccc4[nH]c(C)cc4c3F)ncnc2cc1OCCCN1CCCC1` , please.
Response: 37.5

###

Each record here notes measured inhibition.
- Study target: DYRK3 (human)
- Protocol summary: Caliper, Mobility shift assay off-chip
- Test parameters: compound 0.02 µM
Give the number; % is assumed, so skip it.

Examples with answers:
# Compound smiles, Measurement unit, inhibition
records = [
    ("Cc1ccc(Nc2nccc(N(C)c3ccc4c(C)n(C)nc4c3)n2)cc1S(N)(=O)=O", "%", -2.2),
    ("CNC(=O)c1ccccc1Sc1ccc2c(/C=C/c3ccccn3)n[nH]c2c1", "%", -6.4),
    ("COc1cc2c(Oc3ccc4[nH]c(C)cc4c3F)ncnc2cc1OCCCN1CCCC1", "%", -7.2),
]

Query: # returns recorded inhibition (system: DYRK3 (human)) for `CNC(=O)c1cc(Oc2ccc(NC(=O)Nc3ccc(Cl)c(C(F)(F)F)c3)cc2)ccn1`
Response: -5.8

###

- Study target: BLK (human)
- Protocol summary: Caliper, Mobility shift assay off-chip
- Test parameters: compound 0.02 µM
Each record here notes measured inhibition.
Respond with the figure and its unit, in that order.

Examples with answers:
# Compound smiles, Result
records = [
    ("COc1cc2c(Oc3ccc4[nH]c(C)cc4c3F)ncnc2cc1OCCCN1CCCC1", "13.8%"),
    ("CNC(=O)c1ccccc1Sc1ccc2c(/C=C/c3ccccn3)n[nH]c2c1", "-1.6%"),
    ("CNC(=O)c1cc(Oc2ccc(NC(=O)Nc3ccc(Cl)c(C(F)(F)F)c3)cc2)ccn1", "1%"),
]

// switching to the query molecule
Query: Tell me the measured inhibition of `Cc1ccc(Nc2nccc(N(C)c3ccc4c(C)n(C)nc4c3)n2)cc1S(N)(=O)=O` , please.
Response: 7.7%

###

- Study target: UniProt:P27361
- Sequence (P27361 whole entry, looked up): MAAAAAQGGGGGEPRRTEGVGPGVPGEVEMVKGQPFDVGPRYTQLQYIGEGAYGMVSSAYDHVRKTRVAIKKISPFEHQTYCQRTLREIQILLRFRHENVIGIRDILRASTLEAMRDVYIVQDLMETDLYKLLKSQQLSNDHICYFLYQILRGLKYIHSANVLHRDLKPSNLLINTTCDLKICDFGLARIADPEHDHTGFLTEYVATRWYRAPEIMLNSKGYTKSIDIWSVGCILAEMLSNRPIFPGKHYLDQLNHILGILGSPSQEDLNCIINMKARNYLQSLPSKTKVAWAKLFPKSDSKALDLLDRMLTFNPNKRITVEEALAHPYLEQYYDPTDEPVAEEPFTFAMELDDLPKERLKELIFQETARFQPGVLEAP
- Protocol summary: Caliper, Mobility shift assay off-chip
- Test parameters: compound 0.02 µM
Quantity name: inhibition (%)
Give the number; % is assumed, so skip it.

Examples with answers:
# Compound smiles, inhibition / %
records = [
    ("Cc1ccc(Nc2nccc(N(C)c3ccc4c(C)n(C)nc4c3)n2)cc1S(N)(=O)=O", -5),
    ("COc1cc2c(Oc3ccc4[nH]c(C)cc4c3F)ncnc2cc1OCCCN1CCCC1", -1.5),
]

Query: Tell me the measured inhibition of `CNC(=O)c1cc(Oc2ccc(NC(=O)Nc3ccc(Cl)c(C(F)(F)F)c3)cc2)ccn1` , please.
Response: -2.3

Query: How about this molecule: `CNC(=O)c1ccccc1Sc1ccc2c(/C=C/c3ccccn3)n[nH]c2c1`
Response: -6.1
